Target or system: T1, wildtype feline IL-31 protein (Feline_IL31_wildtype) (feline)
T1 construct: Full length feline IL-31 with C-terminal His tag, secreted from ExpiCHO cells; also called fIL-31
T1 chain: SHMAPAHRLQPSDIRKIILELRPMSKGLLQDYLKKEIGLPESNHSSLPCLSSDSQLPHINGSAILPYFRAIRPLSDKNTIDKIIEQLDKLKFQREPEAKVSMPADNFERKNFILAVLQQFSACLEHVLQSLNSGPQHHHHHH
Assay remarks: Biacore, feline IL-31 chip, mAb 100 nM, share of points within parent mean +/-3 SD
Set-up: key: % of mutant data points within parent mAb mean ±3 SD
Parameter: Binding Similarity score

Example entries and their recorded answers appear below.
A16 (antibody, V domains shown) VH: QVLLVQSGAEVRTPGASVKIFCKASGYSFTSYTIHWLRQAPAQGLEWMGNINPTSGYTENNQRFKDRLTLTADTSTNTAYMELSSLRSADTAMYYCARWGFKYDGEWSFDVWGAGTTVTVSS VL: EIQMTQSPSSLSASPGDRVTITCRASQGISIWLSWYQQKPGNIPKVLINKAANLHIGVPSRFSGSGSGTDFTLTISSLEPEDAATYYCLQSQTYPLTFGGGTKLEIK = 58
A25 (antibody, V domains shown) VH: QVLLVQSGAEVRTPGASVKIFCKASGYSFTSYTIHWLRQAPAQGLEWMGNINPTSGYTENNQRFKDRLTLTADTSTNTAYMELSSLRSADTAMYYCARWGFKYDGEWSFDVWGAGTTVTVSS VL: EIQMTQSPSSLSASPGDRVTITCRASQGISIWLSWYQQKPGNIPKVLINKASNLHIGVPSRFSGSGSGTDFTLTISSLEPEDAATYYCLQSQTAPLTFGGGTKLEIK = 4.4

Return the recorded Binding Similarity score value; entry: A26 (antibody, V domains shown) VH: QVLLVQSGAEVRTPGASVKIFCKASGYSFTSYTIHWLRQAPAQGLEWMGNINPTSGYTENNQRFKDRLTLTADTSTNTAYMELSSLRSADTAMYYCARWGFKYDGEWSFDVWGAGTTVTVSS VL: EIQMTQSPSSLSASPGDRVTITCRASQGISIWLSWYQQKPGNIPKVLINKASNLHIGVPSRFSGSGSGTDFTLTISSLEPEDAATYYCLQSQTYALTFGGGTKLEIK
20.9
